CONDITION LABEL: in tert-butanol, 342.65 K
MEASURED ENDPOINT: solubility (mole fraction)

> print(dat)
            line.notation  observed.measurement
1  O=C(O)c1cccc(C(=O)O)c1                0.0194

---

CONDITION LABEL: in tert-butanol, 345.65 K
MEASURED ENDPOINT: solubility (mole fraction)

> print(dat)
            line.notation  observed.measurement
1  O=C(O)c1cccc(C(=O)O)c1                0.0203

---

CONDITION LABEL: in ethanol, 324.15 K
MEASURED ENDPOINT: solubility (mole fraction)

> print(dat)
            line.notation  observed.measurement
1  O=C(O)c1cccc(C(=O)O)c1                0.0075

---

CONDITION LABEL: in methanol, 326.05 K
MEASURED ENDPOINT: solubility (mole fraction)

> print(dat)
            line.notation           measured.endpoint  observed.measurement
1  O=C(O)c1cccc(C(=O)O)c1  solubility (mole fraction)                0.0068

---

CONDITION LABEL: in isobutanol, 356.05 K
MEASURED ENDPOINT: solubility (mole fraction)

> print(dat)
            line.notation           measured.endpoint  observed.measurement
1  O=C(O)c1cccc(C(=O)O)c1  solubility (mole fraction)                0.0098

---

CONDITION LABEL: in methanol, 302.15 K
MEASURED ENDPOINT: solubility (mole fraction)

> print(dat)
            line.notation  observed.measurement
1  O=C(O)c1cccc(C(=O)O)c1                 0.004

---

CONDITION LABEL: in ethanol, 300.55 K
MEASURED ENDPOINT: solubility (mole fraction)

> print(dat)
            line.notation  observed.measurement
1  O=C(O)c1cccc(C(=O)O)c1                0.0047

---

CONDITION LABEL: in isopropanol, 319.45 K
MEASURED ENDPOINT: solubility (mole fraction)

> print(dat)
            line.notation           measured.endpoint  observed.measurement
1  O=C(O)c1cccc(C(=O)O)c1  solubility (mole fraction)                0.0068

---

CONDITION LABEL: in n-propanol, 322.55 K
MEASURED ENDPOINT: solubility (mole fraction)

> print(dat)
            line.notation  observed.measurement
1  O=C(O)c1cccc(C(=O)O)c1                0.0059

---

CONDITION LABEL: in methanol, 320.15 K
MEASURED ENDPOINT: solubility (mole fraction)

> print(dat)
            line.notation  observed.measurement
1  O=C(O)c1cccc(C(=O)O)c1                 0.006

---

CONDITION LABEL: in ethanol, 310.85 K
MEASURED ENDPOINT: solubility (mole fraction)

> print(dat)
            line.notation           measured.endpoint  observed.measurement
1  O=C(O)c1cccc(C(=O)O)c1  solubility (mole fraction)                0.0056

---

CONDITION LABEL: in methanol, 316.65 K
MEASURED ENDPOINT: solubility (mole fraction)

> print(dat)
            line.notation  observed.measurement
1  O=C(O)c1cccc(C(=O)O)c1                0.0056

---

CONDITION LABEL: in ethanol, 306.15 K
MEASURED ENDPOINT: solubility (mole fraction)

> print(dat)
            line.notation  observed.measurement
1  O=C(O)c1cccc(C(=O)O)c1                0.0051

---

CONDITION LABEL: in isobutanol, 327.85 K
MEASURED ENDPOINT: solubility (mole fraction)

> print(dat)
            line.notation           measured.endpoint  observed.measurement
1  O=C(O)c1cccc(C(=O)O)c1  solubility (mole fraction)                 0.004

---

CONDITION LABEL: in ethanol, 320.45 K
MEASURED ENDPOINT: solubility (mole fraction)

> print(dat)
            line.notation           measured.endpoint  observed.measurement
1  O=C(O)c1cccc(C(=O)O)c1  solubility (mole fraction)                0.0072

---

CONDITION LABEL: in methanol, 298.65 K
MEASURED ENDPOINT: solubility (mole fraction)

> print(dat)
            line.notation  observed.measurement
1  O=C(O)c1cccc(C(=O)O)c1                0.0035

---

CONDITION LABEL: in isobutanol, 318.65 K
MEASURED ENDPOINT: solubility (mole fraction)

> print(dat)
            line.notation           measured.endpoint  observed.measurement
1  O=C(O)c1cccc(C(=O)O)c1  solubility (mole fraction)                0.0025

---

CONDITION LABEL: in sec-butanol, 322.15 K
MEASURED ENDPOINT: solubility (mole fraction)

> print(dat)
            line.notation  observed.measurement
1  O=C(O)c1cccc(C(=O)O)c1                0.0071

---

CONDITION LABEL: in isopropanol, 344.25 K
MEASURED ENDPOINT: solubility (mole fraction)

> print(dat)
            line.notation  observed.measurement
1  O=C(O)c1cccc(C(=O)O)c1                0.0126

---

CONDITION LABEL: in isopropanol, 322.15 K
MEASURED ENDPOINT: solubility (mole fraction)

> print(dat)
            line.notation           measured.endpoint  observed.measurement
1  O=C(O)c1cccc(C(=O)O)c1  solubility (mole fraction)                0.0075

---

CONDITION LABEL: in ethanol, 330.85 K
MEASURED ENDPOINT: solubility (mole fraction)

> print(dat)
            line.notation           measured.endpoint  observed.measurement
1  O=C(O)c1cccc(C(=O)O)c1  solubility (mole fraction)                0.0085

---

CONDITION LABEL: in tert-butanol, 331.65 K
MEASURED ENDPOINT: solubility (mole fraction)

> print(dat)
            line.notation           measured.endpoint  observed.measurement
1  O=C(O)c1cccc(C(=O)O)c1  solubility (mole fraction)                0.0141

---

CONDITION LABEL: in n-propanol, 318.85 K
MEASURED ENDPOINT: solubility (mole fraction)

> print(dat)
            line.notation  observed.measurement
1  O=C(O)c1cccc(C(=O)O)c1                0.0054

---

CONDITION LABEL: in sec-butanol, 342.35 K
MEASURED ENDPOINT: solubility (mole fraction)

> print(dat)
            line.notation           measured.endpoint  observed.measurement
1  O=C(O)c1cccc(C(=O)O)c1  solubility (mole fraction)                0.0126

---

CONDITION LABEL: in ethanol, 296.95 K
MEASURED ENDPOINT: solubility (mole fraction)

> print(dat)
            line.notation           measured.endpoint  observed.measurement
1  O=C(O)c1cccc(C(=O)O)c1  solubility (mole fraction)                0.0042

---

CONDITION LABEL: in tert-butanol, 328.75 K
MEASURED ENDPOINT: solubility (mole fraction)

> print(dat)
            line.notation  observed.measurement
1  O=C(O)c1cccc(C(=O)O)c1                0.0125

---

CONDITION LABEL: in ethanol, 335.05 K
MEASURED ENDPOINT: solubility (mole fraction)

> print(dat)
            line.notation           measured.endpoint  observed.measurement
1  O=C(O)c1cccc(C(=O)O)c1  solubility (mole fraction)                0.0093

---

CONDITION LABEL: in methanol, 292.45 K
MEASURED ENDPOINT: solubility (mole fraction)

> print(dat)
            line.notation           measured.endpoint  observed.measurement
1  O=C(O)c1cccc(C(=O)O)c1  solubility (mole fraction)                0.0031

---

CONDITION LABEL: in n-propanol, 341.95 K
MEASURED ENDPOINT: solubility (mole fraction)

> print(dat)
            line.notation  observed.measurement
1  O=C(O)c1cccc(C(=O)O)c1                  0.01
